Quick reference for NCB among some binders
studySystem: T1, human CD3 on CD3+ Jurkat cells (human, UniProt P07766 23-207)
T1 construct: whole, on cells; The whole CD3 complex stands on the cells; also called Human CD3 Jurkat; human CD3+ Jurkat cells
T1 sequence (P07766 23-207): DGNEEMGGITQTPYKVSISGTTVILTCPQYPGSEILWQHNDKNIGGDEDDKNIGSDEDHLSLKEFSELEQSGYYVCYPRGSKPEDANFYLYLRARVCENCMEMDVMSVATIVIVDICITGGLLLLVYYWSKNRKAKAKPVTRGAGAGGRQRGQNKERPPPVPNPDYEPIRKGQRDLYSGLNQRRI
assayRemarks: flow cytometry, yeast-produced IgG 100 nM on CD3+ Jurkat cells, pH 6.0
The reply should be a number, written without any unit.

Record excerpt, results attached:
{"columns": ["binder", "observedResult"],
 "data": [
  ["ADI-48587 (Antibody No. 2), human IgG1 (antibody, V domains shown, Tested as human IgG1 (yeast-produced aglycosylated, or CHO-produced); also called Ab No. 2; parent pH-dependent antibody) VH: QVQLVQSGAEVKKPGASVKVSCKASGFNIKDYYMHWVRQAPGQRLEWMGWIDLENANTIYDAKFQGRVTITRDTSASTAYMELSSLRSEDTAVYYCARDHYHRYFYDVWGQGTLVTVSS VL: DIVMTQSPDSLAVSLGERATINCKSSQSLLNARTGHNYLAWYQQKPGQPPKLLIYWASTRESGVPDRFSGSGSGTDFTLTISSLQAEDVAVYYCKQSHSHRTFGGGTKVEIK", 149],
  ["ADI-26906 (Antibody No. 1), human IgG1 (antibody, V domains shown, Non-pH-dependent parent; Tested as human IgG1 (yeast-produced aglycosylated, or CHO-produced); also called Ab No. 1) VH: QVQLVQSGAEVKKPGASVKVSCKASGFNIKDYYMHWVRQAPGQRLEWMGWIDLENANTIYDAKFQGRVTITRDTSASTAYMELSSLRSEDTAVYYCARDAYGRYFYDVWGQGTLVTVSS VL: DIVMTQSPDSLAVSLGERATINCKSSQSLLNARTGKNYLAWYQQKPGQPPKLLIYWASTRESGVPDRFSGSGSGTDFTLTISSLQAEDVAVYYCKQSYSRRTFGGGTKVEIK", 203]
]}

ADI-74967 (Antibody No. 5), human IgG1 (antibody, V domains shown, Tested as human IgG1 (yeast-produced aglycosylated, or CHO-produced)) VH: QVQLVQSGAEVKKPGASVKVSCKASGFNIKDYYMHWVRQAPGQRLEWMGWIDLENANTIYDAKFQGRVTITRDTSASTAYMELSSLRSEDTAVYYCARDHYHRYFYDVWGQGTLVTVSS VL: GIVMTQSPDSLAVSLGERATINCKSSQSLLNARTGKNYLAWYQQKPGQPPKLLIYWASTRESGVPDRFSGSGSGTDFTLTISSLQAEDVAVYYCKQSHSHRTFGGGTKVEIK yielded NCB of 185

Reference source for all entries: patent US20260152557A1
